Biological target: T1, Avi-human CD38 ECD (human, UniProt P28907 43-300)
T1 construct: eluted as a monomer; also called hCD38; huCD38
Assay: ELISA on human CD38 ECD; class A = EC50 0.02 nM - 0.1 nM (table legend)
pEC50: −log10 of the molar value.
property_measured: pEC50

h18E4-19 HC Y100aA (antibody, name in Kabat numbering, V domains shown, Alanine scan variant of h18E4-19; Kabat numbers, not linear positions of the entry) VH: EVQLLESGGGLVQPGGSLRLSCAASGFSFNNYWIIWIRQAPGKGLEWVAAIYSPSGDIKYYADWAKGRFTVSKDNSKNTVYLQMNSLRAEDTAVYYCARELSGSSAEGYFESWGQGTLVTV VL: DIQLTQSPSTLSASVGDRVTITCRSSQSVYGHNWLAWYQQKPGKAPKLLMYRASNLASGVPSRFSGSGSGTEFTLTISSVQPDDFATYYCQGYYSGGSYAFGGGTKVEIK :: 10.00 to 10.70
h18E4-19 LC Y92A (antibody, V domains shown, Alanine scan variant of h18E4-19; Kabat numbers, not linear positions of the entry) VH: EVQLLESGGGLVQPGGSLRLSCAASGFSFNNYWIIWIRQAPGKGLEWVAAIYSPSGDIKYYADWAKGRFTVSKDNSKNTVYLQMNSLRAEDTAVYYCARELSGSSYEGYFESWGQGTLVTV VL: DIQLTQSPSTLSASVGDRVTITCRSSQSVYGHNWLAWYQQKPGKAPKLLMYRASNLASGVPSRFSGSGSGTEFTLTISSVQPDDFATYYCQGYASGGSYAFGGGTKVEIK :: 10.00 to 10.70
h18E4-19 HC E101A (antibody, name in Kabat numbering, V domains shown, Alanine scan variant of h18E4-19; Kabat numbers, not linear positions of the entry) VH: EVQLLESGGGLVQPGGSLRLSCAASGFSFNNYWIIWIRQAPGKGLEWVAAIYSPSGDIKYYADWAKGRFTVSKDNSKNTVYLQMNSLRAEDTAVYYCARELSGSSYEGYFASWGQGTLVTV VL: DIQLTQSPSTLSASVGDRVTITCRSSQSVYGHNWLAWYQQKPGKAPKLLMYRASNLASGVPSRFSGSGSGTEFTLTISSVQPDDFATYYCQGYYSGGSYAFGGGTKVEIK :: 10.00 to 10.70

[in] Provide one value: measured pEC50 of h18E4-19 HC F100eA (antibody, name in Kabat numbering, V domains shown, Alanine scan variant of h18E4-19; Kabat numbers, not linear positions of the entry) VH: EVQLLESGGGLVQPGGSLRLSCAASGFSFNNYWIIWIRQAPGKGLEWVAAIYSPSGDIKYYADWAKGRFTVSKDNSKNTVYLQMNSLRAEDTAVYYCARELSGSSYEGYAESWGQGTLVTV VL: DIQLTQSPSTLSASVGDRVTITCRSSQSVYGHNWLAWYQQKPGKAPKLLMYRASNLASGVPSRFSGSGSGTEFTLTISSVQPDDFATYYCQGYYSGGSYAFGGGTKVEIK
[out] 10.00 to 10.70

[in] Tell me measured pEC50 for h18E4-19 HC G98A (antibody, V domains shown, Alanine scan variant of h18E4-19; Kabat numbers, not linear positions of the entry) VH: EVQLLESGGGLVQPGGSLRLSCAASGFSFNNYWIIWIRQAPGKGLEWVAAIYSPSGDIKYYADWAKGRFTVSKDNSKNTVYLQMNSLRAEDTAVYYCARELSASSYEGYFESWGQGTLVTVSS VL: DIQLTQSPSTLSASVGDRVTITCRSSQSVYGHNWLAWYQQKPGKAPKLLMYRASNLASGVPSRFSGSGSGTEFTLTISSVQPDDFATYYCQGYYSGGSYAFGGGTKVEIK please.
[out] 10.00 to 10.70
